Parameter: Radioimmunoassay (units/ml). Scope: all listed entries.
target: rabbit antisera raised against human urinary CSF-1; assay: radioimmunoassay using anti-CSF antibodies, COS-A2 supernatant; first of three values

[
  {
    "binder": "SCSF/C∇158, expression product of pCSF-BamBcl (ligand) EEVSEYCSHMIGSGHLQSLQRLIDSQMETSCQITFEFVDQEQLKDPVCYLKKAFLLVQYIMEDTMRFRDNTPNAIAIVQLQELSLRLKSCFTKDYEEHDKACVRTFYETPLQLLEKVKNVFNETKNLLDKDWNIFSKNCNNSFAECSSQGHERQSEGS",
    "u": "units/ml",
    "Radioimmunoassay (units/ml)": 8800
  },
  {
    "binder": "SCSF, expression product of pcCSF-17 (short form of human CSF-1) (ligand) EEVSEYCSHMIGSGHLQSLQRLIDSQMETSCQITFEFVDQEQLKDPVCYLKKAFLLVQYIMEDTMRFRDNTPNAIAIVQLQELSLRLKSCFTKDYEEHDKACVRTFYETPLQLLEKVKNVFNETKNLLDKDWNIFSKNCNNSFAECSSQGHERQSEGSSSPQLQESVFHLLVPSVILVLLAVGGLLFYRWRRRSHQEPQRADSPLEQPEGSPLTQDDRQVELPV",
    "u": "units/ml",
    "Radioimmunoassay (units/ml)": 3130
  },
  {
    "binder": "expression product of pCSF-Bam: 158 amino acids of CSF-1 fused to six vector-derived residues (ligand) EEVSEYCSHMIGSGHLQSLQRLIDSQMETSCQITFEFVDQEQLKDPVCYLKKAFLLVQYIMEDTMRFRDNTPNAIAIVQLQELSLRLKSCFTKDYEEHDKACVRTFYETPLQLLEKVKNVFNETKNLLDKDWNIFSKNCNNSFAECSSQGHERQSEGSRHDKIH",
    "u": "units/ml",
    "Radioimmunoassay (units/ml)": 9600
  },
  {
    "binder": "SCSF/C∇158, expression product of pCSF-BamTGA (ligand) EEVSEYCSHMIGSGHLQSLQRLIDSQMETSCQITFEFVDQEQLKDPVCYLKKAFLLVQYIMEDTMRFRDNTPNAIAIVQLQELSLRLKSCFTKDYEEHDKACVRTFYETPLQLLEKVKNVFNETKNLLDKDWNIFSKNCNNSFAECSSQGHERQSEGS",
    "u": "units/ml",
    "Radioimmunoassay (units/ml)": 8450
  }
]
